- target-or-test-system: full-length human PLD1 (Homo sapiens (Human))
- test-summary: Evaluation of human PLD1 enzyme inhibitory activity (Amplex Red / choline oxidase fluorescence)
- Format: biochemical
- condition-summary: full-length human PLD1 enzyme; read-out: PLD1 IC50
value-kind: IC50

Send back full-length human PLD1 (Homo sapiens (Human)) IC50 of Cc1cc(C(=O)N[C@@H](C)C[C@H]2CC[C@]3(CC2)OC(=O)NN=C3c2cc(OC(F)(F)F)ccc2Br)[nH]n1 only.
< 0.01 µM

Fill: IC50 (full-length human PLD1 (Homo sapiens (Human))) for this molecule C[C@@H](C[C@H]1CC[C@]2(CC1)OC(=O)NN=C2c1ccc(F)cc1Br)NC(=O)c1cnn(C)c1
< 0.01 µM

Would you please give the reported IC50 of CNC(=O)C(=O)N[C@@H](C)C[C@]1(C#N)CC[C@@]2(CC1)OC(=O)NN=C2c1cc(OC(F)(F)F)ccc1Br with full-length human PLD1 (Homo sapiens (Human))?
< 0.01 µM

Okay, next one:
Look up and report IC50, with full-length human PLD1 (Homo sapiens (Human)) as system, for CNC(=O)C(=O)N[C@@H](C)C[C@H]1CC[C@]2(CC1)OC(=O)NN=C2c1cc(OC(F)F)ccc1C
< 0.01 µM

* * *

- target-or-test-system: full-length human PLD1 (Homo sapiens (Human), UniProt Q13393)
- Sequence (Q13393 other isoform, or with tags, fused parts or gaps): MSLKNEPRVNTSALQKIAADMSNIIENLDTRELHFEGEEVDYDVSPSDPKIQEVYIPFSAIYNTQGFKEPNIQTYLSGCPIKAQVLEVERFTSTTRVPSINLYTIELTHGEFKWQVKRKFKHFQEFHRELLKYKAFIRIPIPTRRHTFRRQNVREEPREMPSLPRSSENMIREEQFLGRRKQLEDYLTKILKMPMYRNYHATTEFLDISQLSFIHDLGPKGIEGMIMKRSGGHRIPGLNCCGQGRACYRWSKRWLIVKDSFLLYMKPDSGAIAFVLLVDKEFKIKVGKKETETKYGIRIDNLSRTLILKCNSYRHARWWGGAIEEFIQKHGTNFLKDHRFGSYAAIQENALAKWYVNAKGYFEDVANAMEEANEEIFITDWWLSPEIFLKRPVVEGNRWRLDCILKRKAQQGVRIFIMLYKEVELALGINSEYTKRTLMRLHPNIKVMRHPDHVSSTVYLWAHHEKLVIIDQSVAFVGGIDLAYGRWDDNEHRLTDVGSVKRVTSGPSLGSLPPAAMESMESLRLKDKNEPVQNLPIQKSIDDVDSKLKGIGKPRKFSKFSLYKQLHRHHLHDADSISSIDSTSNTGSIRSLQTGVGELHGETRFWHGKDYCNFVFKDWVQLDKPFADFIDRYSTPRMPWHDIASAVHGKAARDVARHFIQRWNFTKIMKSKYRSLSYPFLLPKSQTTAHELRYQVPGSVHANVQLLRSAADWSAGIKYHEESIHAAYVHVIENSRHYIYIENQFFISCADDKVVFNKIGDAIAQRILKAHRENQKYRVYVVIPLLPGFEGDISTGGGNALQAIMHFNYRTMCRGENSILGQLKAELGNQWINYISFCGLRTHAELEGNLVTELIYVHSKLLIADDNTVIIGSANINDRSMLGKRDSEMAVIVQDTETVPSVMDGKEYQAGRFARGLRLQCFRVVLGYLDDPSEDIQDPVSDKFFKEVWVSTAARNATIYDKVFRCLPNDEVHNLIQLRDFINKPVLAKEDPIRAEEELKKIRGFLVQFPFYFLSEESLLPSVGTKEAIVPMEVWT
- test-summary: Evaluation of human PLD1 enzyme inhibitory activity (Amplex Red / choline oxidase fluorescence)
- Format: biochemical
- condition-summary: full-length human PLD1 enzyme; read-out: PLD1 IC50
// NB: equality with 40 nM counts as false; only IC50 strictly below is true

Solved entries:
Does C[C@@H](C[C@H]1CC[C@]2(CC1)OC(=O)NN=C2c1ccc(F)cc1I)NC(=O)C(=O)NC1CC1 [Example 177] have IC50 strictly under 40 nM?
true

Does this molecule meet the criterion IC50 < 40 nM? C[C@@H](CN1CCC2(CC1)OC(=O)NN=C2c1ccc(C#N)cc1Br)NC(=O)c1cnn(C)c1 [Example 336]
true

Bench note: check whether COc1cc(C)c(C2=NNC(=O)O[C@]23CC[C@@H](C[C@H](C)NC(=O)C(=O)NC2CC2)CC3)cn1 [Example 220] shows IC50 below 40 nM
false

Next:
hey, is IC50 for Cc1cc(C(=O)N[C@@H](C)C[C@H]2CC[C@]3(CC2)OC(=O)NN=C3c2cnc(N3CCOCC3)cc2Cl)[nH]n1 [Example 226] lower than 40 nM or not?
true

The measurements presented in this section are drawn from patent US20240101572A1.
